- assayRemarks: Half life of the compound assessed as compound rearrangement
- Format: physicochemical

| molecule | half-life / h |
| --- | --- |
| O=C(O)Cc1ccccc1Nc1c(Cl)cccc1Cl [DICLOFENAC] | 0.5 |
| Cc1cc(-c2nnn(C[C@H]3CC[C@H](C(=O)O)CC3)n2)cc(C(=O)NCc2ccc(F)cc2)n1 | 67 |

---

- assayRemarks: Oral bioavailability in beagle dog at 1 mg/kg
- Format: ADME, organism-based, Canis lupus familiaris
- conditionInfo: in vivo

| smilesStr | unit | bioavailability |
| --- | --- | --- |
| COc1cc(CNC(=O)c2cc(-c3nnn(C[C@H]4CO[C@H](CO)CO4)n3)nc(C)n2)ccc1F | % | 64 |

---

- assaySystem: Collagenase 3 (Homo sapiens)
- assayRemarks: Inhibition of full length human recombinant MMP13 using MCA-Arg-Pro-Leu-Gly-Leu-Dpa-Ala-Arg-Glu-Arg-NH2 as substrate preincubated for 60 mins followed by substrate addition by fluorescence assay
pKi: −log10 of the molar value.

| smilesStr | pKi |
| --- | --- |
| COc1cccc(CNC(=O)c2cc(-c3nnn(C[C@H]4CC[C@@H](NS(C)(=O)=O)CC4)n3)cc(C)n2)c1 | 8.09 |
| COc1cc(CNC(=O)c2cc(-c3nnn(C[C@@H]4CO[C@@H](CO)CO4)n3)nc(C)n2)ccc1F | 8.38 |
| COc1cccc(CNC(=O)c2cc(-c3nnn(C[C@H]4CC[C@H](CO)CC4)n3)cc(C)n2)c1 | 8.68 |
| COc1cccc(CNC(=O)c2cc(-c3nnn(C[C@H]4CC[C@H](O)CC4)n3)cc(C)n2)c1 | 8.35 |

// provenance: ChEMBL document CHEMBL3758105
